System: K98450-129-R-PDC multicell spheroids, viability;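 note: spheroids exposed to agents for seven days before read-out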
Assay: Anticancer human tumor K98450-129-R-PDC patient-derived colon adenocarcinoma cell line growth inhibition [PI3K]
Details: second compound 0.00316 µM; first compound 0.0316 µM; stronger effect = lower value
viability, T/C by entry:
Enter your answer as a number in %; do not include the unit.

Here are 4 compounds together with their reported answers.
INSERT INTO measurements (compound, measured_attribute, test_result) VALUES
  ('C=CC(=O)N1CCN(c2nc(=O)n(-c3c(C)ccnc3C(C)C)c3nc(-c4c(O)cccc4F)c(F)cc23)C(C)C1 (stereo unspecified) + COc1c(OCCCN2CCOCC2)ccc2c3n(c(=NC(=O)c4cnc(N)nc4)nc12)CCN3', 'viability, T/C', 98.1),
  ('Cn1ncnc1[C@H]1c2n[nH]c(=O)c3cc(F)cc(c23)N[C@@H]1c1ccc(F)cc1 + CC(Nc1ccc2c(c1)OCCn1cc(N3C(=O)OCC3C(F)F)nc1-2)C(N)=O', 'viability, T/C', 102),
  ('CNC(=O)c1ccc(N2C(=S)N(c3ccc(C#N)c(C(F)(F)F)c3)C(=O)C2(C)C)cc1F + CC(Nc1ccc2c(c1)OCCn1cc(N3C(=O)OCC3C(F)F)nc1-2)C(N)=O', 'viability, T/C', 108),
  ('CC(=O)c1c(C)c2cnc(Nc3ccc(N4CCNCC4)cn3)nc2n(C2CCCC2)c1=O + COc1c(OCCCN2CCOCC2)ccc2c3n(c(=NC(=O)c4cnc(N)nc4)nc12)CCN3', 'viability, T/C', 101);

Respond only with viability, T/C recorded for C[C@@H](NC(=O)c1ncnc(N)c1Cl)c1ncc(C(=O)Nc2cc(C(F)(F)F)c(Cl)cn2)s1 + COc1c(OCCCN2CCOCC2)ccc2c3n(c(=NC(=O)c4cnc(N)nc4)nc12)CCN3 119

Answer with the recorded viability, T/C for the compound listed here: CC1(C)CCC(CN2CCN(c3ccc(C(=O)NS(=O)(=O)c4ccc(NCC5CCOCC5)c([N+](=O)[O-])c4)c(Oc4cnc5[nH]ccc5c4)c3)CC2)=C(c2ccc(Cl)cc2)C1 + COc1c(OCCCN2CCOCC2)ccc2c3n(c(=NC(=O)c4cnc(N)nc4)nc12)CCN3 94.9

Indicate its recorded viability, T/C; the compound in question is Cn1ncc(Cl)c1-c1cc(C(=O)NC(CN)Cc2cccc(F)c2)sc1Cl (stereo unspecified) + COc1c(OCCCN2CCOCC2)ccc2c3n(c(=NC(=O)c4cnc(N)nc4)nc12)CCN3 112
